test system: OVCAR-4; assay: NCI tumour cell line growth inhibition, 48 h
Active and inactive are the calls of the source. No stated cut-off is given here; in the data, active = GI50 up to about 1.1 µM and inactive = higher.
Outcome codes: active, inactive

Compound	Assigned label
Cc1cc(-c2nc3cc(F)ccc3s2)ccc1NC(=O)[C@@H](N)CCCCN	inactive
Nc1nc2c(c(=O)[nH]1)C(c1ccc(Cl)cc1)C=C(c1ccccc1)N2 (stereo not given)	inactive
Cc1c(C(=O)CC(=O)C(=O)Nc2cccc(C(F)(F)F)c2)[n+]([O-])c2ccccc2[n+]1[O-]	inactive
COC(=O)C[C@](O)(CCC(C)(C)O)C(=O)O[C@@H]1C(OC)=C[C@]23CCCN2CCc2cc4c(cc2[C@H]13)OCO4	active
N#CCCN(CCC#N)c1ccc(/C=C(\NC(=O)c2cc([N+](=O)[O-])ccc2Cl)C(=O)Nc2ccccc2)cc1	inactive
